- target: human polymorphonuclear leukocyte elastase (Homo sapiens, UniProt P08246)
- Construct: Crude extract of human polymorphonuclear leukocytes (PMN) containing elastase activity; endogenous in cells; host or cells: human polymorphonuclear leukocytes (crude extract)
- Sequence (P08246 30-247 limits assumed): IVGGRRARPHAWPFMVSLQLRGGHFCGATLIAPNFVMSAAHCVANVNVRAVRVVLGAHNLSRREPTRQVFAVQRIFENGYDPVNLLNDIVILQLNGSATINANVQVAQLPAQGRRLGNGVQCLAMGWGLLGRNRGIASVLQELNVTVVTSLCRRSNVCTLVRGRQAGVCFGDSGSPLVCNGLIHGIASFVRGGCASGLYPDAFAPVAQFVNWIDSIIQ
- experimental_protocol: Inhibition of human polymorphonuclear leukocyte (granulocyte) elastase via hydrolysis of Boc-AAPAN or Boc-AAPVN
- Type: biochemical
- condition_label: pH 7.5, read-out: kobs/I, second order rate constant of inactivation of the enzyme
Assign Y to entries whose kinact/KI meets or exceeds 9000 M⁻¹ s⁻¹; assign N to the rest.

{"columns": ["compound", "category"],
 "data": [
  ["CC[C@H]1C(=O)N(S(=O)(=O)c2ccc(C)cc2)[C@H]1C(=O)OCc1ccc(C(=O)O)cc1 (relative stereo)", "N"],
  ["CCC1C(=O)N(C(=O)CCC(=O)O)C1OC(C)=O (stereo not shown)", "N"],
  ["CC[C@H]1C(=O)N(C(C)=O)[C@@H]1OC(=O)c1ccccc1 (relative stereo) [Table I: H; C2 H5 (trans); OCOPh; COCH3]", "Y"],
  ["CCOC(=O)N1C(=O)[C@H](CC)[C@H]1Oc1ccc(C(=O)O)cc1 (relative stereo)", "N"],
  ["CC[C@H]1C(=O)N(C(C)=O)[C@H]1OC(=O)c1ccccc1 (relative stereo) [Table I: H; C2 H5 (cis); OCOPh; COCH3]", "Y"],
  ["CCOC(=O)[C@H]1[C@@H](CC)C(=O)N1S(=O)(=O)c1ccc([N+](=O)[O-])cc1 (relative stereo)", "N"],
  ["CCOC(=O)[C@@H]1[C@@H](CC)C(=O)N1S(=O)(=O)c1ccc([N+](=O)[O-])cc1 (relative stereo)", "Y"]
]}

---

- target: human polymorphonuclear leukocyte elastase (Homo sapiens)
- Construct: Crude extract of human polymorphonuclear leukocytes (PMN) containing elastase activity; endogenous in cells; host or cells: human polymorphonuclear leukocytes (crude extract)
- experimental_protocol: Inhibition of human polymorphonuclear leukocyte (granulocyte) elastase via hydrolysis of Boc-AAPAN or Boc-AAPVN
- Format: biochemical
- condition_label: pH 7.5, Table I; read-out: kobs/I, second order rate constant of inactivation of the enzyme
Quick list: kinact/KI per entry.
measured_endpoint: kinact/KI (M⁻¹ s⁻¹)

{"columns": ["molecule", "measured_endpoint", "reported_value"],
 "data": [
  ["CCOC(=O)N1C(=O)[C@H](CC)[C@H]1OC(C)C(=O)O (relative stereo)", "kinact/KI", 346],
  ["CCOC(=O)N1C(=O)[C@H](CC)[C@H]1OCC(=O)O (relative stereo)", "kinact/KI", 512],
  ["CCOC(=O)N1C(=O)[C@H](CC)[C@H]1OCC(=O)NCC(=O)O (relative stereo)", "kinact/KI", 1000],
  ["CC[C@H]1C(=O)N(S(=O)(=O)c2ccc(C)cc2)[C@H]1C(=O)OCC(=O)O (relative stereo)", "kinact/KI", 1550],
  ["CCOC(=O)N1C(=O)[C@H](CC)[C@@H]1OCC(=O)O (relative stereo)", "kinact/KI", 796],
  ["CCC[C@H]1C(=O)N(C(=O)OCC)[C@@H]1OCC(=O)O (relative stereo)", "kinact/KI", 1500]
]}

---

- target: human polymorphonuclear leukocyte elastase (Homo sapiens, UniProt P08246)
- Construct: Crude extract of human polymorphonuclear leukocytes (PMN) containing elastase activity; endogenous in cells; host or cells: human polymorphonuclear leukocytes (crude extract)
- experimental_protocol: Inhibition of human polymorphonuclear leukocyte (granulocyte) elastase via hydrolysis of Boc-AAPAN or Boc-AAPVN
- Format: biochemical
- condition_label: pH 7.5, Table V, (per mole per second); read-out: kobs/I, second order rate constant of inactivation of the enzyme
Assign Condition met to entries whose kinact/KI meets or exceeds 100000 M⁻¹ s⁻¹; assign Condition not met to the rest.

{"columns": ["structure_notation", "category"],
 "data": [
  ["CCC1(CC)C(=O)N(C(=O)N[C@H](Cc2ccccc2)c2ccccc2)[C@H]1Oc1ccc(C(=O)O)cc1", "Condition not met"],
  ["CCC[C@@H](NC(=O)N1C(=O)C(CC)(CC)[C@@H]1Oc1ccc(C(=O)O)cc1)c1ccccc1", "Condition met"],
  ["CCC1(CC)C(=O)N(C(=O)N[C@H](COC)c2ccccc2)[C@H]1Oc1ccc(C(=O)O)cc1", "Condition not met"],
  ["CCC[C@@H](NC(=O)N1C(=O)C(CC)(CC)[C@@H]1Oc1ccc(CC(=O)O)cc1)c1ccccc1", "Condition met"],
  ["CC[C@@H](NC(=O)N1C(=O)C(CC)(CC)[C@@H]1Oc1ccc(CC(=O)O)cc1)c1ccccc1", "Condition met"],
  ["CCC1(CC)C(=O)N(C(=O)N[C@H](C)c2ccc(C)cc2)[C@H]1Oc1ccc(C(=O)O)cc1", "Condition not met"],
  ["CC[C@@H](NC(=O)N1C(=O)C(CC)(CC)[C@@H]1Oc1ccc(C(=O)O)cc1)c1ccccc1", "Condition not met"]
]}

---

- target: human polymorphonuclear leukocyte elastase (Homo sapiens)
- Construct: Crude extract of human polymorphonuclear leukocytes (PMN) containing elastase activity; endogenous in cells; host or cells: human polymorphonuclear leukocytes (crude extract)
- experimental_protocol: Inhibition of human polymorphonuclear leukocyte (granulocyte) elastase via hydrolysis of Boc-AAPAN or Boc-AAPVN
- Assay type: biochemical
- condition_label: pH 7.5, Table IV, (per mole per second); read-out: kobs/I, second order rate constant of inactivation of the enzyme
Quick list: kinact/KI per entry.

{"columns": ["compound", "kinact/KI (M⁻¹ s⁻¹)"],
 "data": [
  ["CCC1C(=O)N(C(=O)N(CC)Cc2ccccc2)C1Oc1ccc(C(=O)O)cc1 (stereo not shown)", 83000],
  ["CCC1(C)C(=O)N(C(=O)N2CCc3ccccc3C2)C1Oc1ccc(C(=O)O)cc1 (stereo not shown)", 4380],
  ["CCC1C(=O)N(C(=O)N2CCc3ccccc3C2)C1Oc1ccc(C(=O)O)cc1 (stereo not shown) [Table IV: C2 H5; H; O-(4-COOHPh); drawing 46]", 10100],
  ["CCOC(=O)c1ccc(COC(=O)N2C(=O)C(CC)(CC)C2Oc2ccc(C(=O)O)cc2)cc1 (stereo not shown)", 14300],
  ["CCOC(=O)c1ccc(COC(=O)N2C(=O)C(CC)C2Oc2ccc(C(=O)O)cc2)cc1 (stereo not shown)", 227000],
  ["CCC[C@@H](NC(=O)N1C(=O)C(CC)(CC)C1Oc1ccc(CC(=O)O)cc1)c1ccc2occc2c1 (stereo partly shown)", 847000],
  ["CCC1C(=O)N(C(=O)N(Cc2ccccc2)Cc2ccccc2)C1Oc1ccc(C(=O)O)cc1 (stereo not shown)", 5980]
]}

---

- target: human polymorphonuclear leukocyte elastase (Homo sapiens, UniProt P08246)
- Construct: Crude extract of human polymorphonuclear leukocytes (PMN) containing elastase activity; endogenous in cells; host or cells: human polymorphonuclear leukocytes (crude extract)
- experimental_protocol: Inhibition of human polymorphonuclear leukocyte (granulocyte) elastase via hydrolysis of Boc-AAPAN or Boc-AAPVN
- Type: biochemical
- condition_label: pH 7.5, Table II, (per mole per second); read-out: kobs/I, second order rate constant of inactivation of the enzyme
Quick list: kinact/KI per entry.

{"columns": ["molecule", "kinact/KI, M⁻¹ s⁻¹"],
 "data": [
  ["CCC1(CC)C(=O)N(C(=O)NCc2cccs2)C1Oc1ccc(C(=O)O)cc1 (stereo not drawn)", 4920],
  ["CCC1(CC)C(=O)N(C(=O)NCc2ccco2)C1Oc1ccc(C(=O)O)cc1 (stereo not drawn)", 5220],
  ["CCC1(CC)C(=O)N(C(=O)NCc2ccccc2)C1Oc1ccc([C@H](NC(C)=O)C(=O)O)cc1 (stereo partly drawn) [Table II: C2 H5; C2 H5; drawing 39; CH2 Ph]", 2420],
  ["CCC1(C)C(=O)N(C(=O)NCc2cc(C)c(C(=O)O)c(C)c2)C1Oc1ccc(C(N)=O)cc1 (stereo not drawn)", 30000],
  ["CCCC1(CC)C(=O)N(C(=O)NCc2ccccc2)C1Oc1ccc(C(=O)O)cc1 (stereo not drawn)", 3280],
  ["CCC1(CC)C(=O)N(C(=O)NCc2ccccc2)C1Oc1ccccc1CO (stereo not drawn)", 2960],
  ["CCC1(CC)C(=O)N(C(=O)NCc2ccccc2)C1Oc1ccc([N+](=O)[O-])cc1 (stereo not drawn)", 6850],
  ["CCC1(CC)C(=O)N(C(=O)NCc2ccccc2)C1Oc1ccc([N+](C)(C)C)cc1 (stereo not drawn)", 1700],
  ["CCC1(COC)C(=O)N(C(=O)NCc2ccccc2)C1Oc1ccc(C(=O)O)cc1 (stereo not drawn)", 1900],
  ["CCC1(CC)C(=O)N(C(=O)NCc2ccc(-c3ccccc3)cc2)C1Oc1ccc(C(=O)CCC(=O)O)cc1 (stereo not drawn)", 107000],
  ["CCCC1(CC)C(=O)N(C(=O)NCc2ccc3ccccc3c2)C1Oc1ccc(C(=O)O)cc1 (stereo not drawn)", 51000],
  ["CCCC1(CC)C(=O)N(C(=O)NC(CC)c2ccccc2)C1Oc1ccc(C(=O)CCC(=O)O)cc1 (stereo not drawn)", 87000],
  ["CCC1(CC)C(=O)N(C(=O)NC(C)c2ccc(C3CCCCC3)c(Cl)c2)C1Oc1ccc(C(=O)O)cc1 (stereo not drawn)", 20800],
  ["CCC1(C)C(=O)N(C(=O)NC(C)c2ccccc2)C1Oc1ccc(C(=O)O)cc1 (stereo not drawn)", 15000],
  ["CCC1(CC)C(=O)N(C(=O)NCCCc2ccccc2)C1Oc1ccc(C(=O)O)cc1 (stereo not drawn)", 4540],
  ["CCC1(CC)C(=O)N(C(=O)NCc2ccccc2)C1Oc1cccc(C(=O)NCc2ccccc2)c1 (stereo not drawn)", 3050],
  ["CCC1(C)C(=O)N(C(=O)NCc2ccccc2)C1Oc1ccc(C(N)=O)cc1 (stereo not drawn)", 12500],
  ["CCC1(CC)C(=O)N(C(=O)NCc2ccccc2)C1Oc1ccc(CC(=O)O)cc1 (stereo not drawn)", 3180],
  ["CCC1(CC)C(=O)N(C(=O)NCc2ccc(C(=O)O)cc2)C1Oc1ccc(C(C)=O)cc1 (stereo not drawn)", 2810],
  ["CCC1(CC)C(=O)N(C(=O)NC(C)c2cccc3ccccc23)C1Oc1ccc(C(=O)O)cc1 (stereo not drawn)", 14100],
  ["CCC1(CC)C(=O)N(C(=O)NCc2ccc(C(=O)O)cc2)C1Oc1ccccc1 (stereo not drawn)", 1500],
  ["CCC1(CC)C(=O)N(C(=O)NCCCCOc2ccccc2)C1Oc1ccc(C(=O)O)cc1 (stereo not drawn)", 3450],
  ["CCC1(CC)C(=O)N(C(=O)NCc2ccccc2)C1Oc1ccc(NC(=O)CCC(=O)O)cc1 (stereo not drawn)", 2570],
  ["CCC1(CC)C(=O)N(C(=O)NCc2ccc3cc4ccccc4cc3c2)C1Oc1ccc(C(=O)O)cc1 (stereo not drawn)", 36200],
  ["CCCCCCCCCNC(=O)N1C(=O)C(CC)(CC)C1Oc1ccc(C(=O)O)cc1 (stereo not drawn)", 8300],
  ["CCC1(CC)C(=O)N(C(=O)NCc2ccc([N+](=O)[O-])cc2)C1Oc1ccc(C(=O)O)cc1 (stereo not drawn)", 5080],
  ["CCC1(CC)C(=O)N(C(=O)NCc2ccccc2)C1n1ccnc1 (stereo not drawn)", 200],
  ["CCC1(CC)C(=O)N(C(=O)NCc2ccccc2)C1Oc1ccc(C(=O)NS(=O)(=O)c2ccc(Cl)cc2)cc1 (stereo not drawn) [Table II: C2 H5; C2 H5; drawing 38; CH2 Ph]", 6300],
  ["CC[C@@]1(C)C(=O)N(C(=O)NCc2ccccc2)[C@H]1Oc1ccc(C(=O)O)cc1", 2000],
  ["CCC1(COC)C(=O)N(C(=O)NCc2ccc3ccccc3c2)C1Oc1ccc(C(=O)O)cc1 (stereo not drawn)", 50000],
  ["CCC1(CC)C(=O)N(C(=O)NCc2ccc(-c3ccccc3)cc2)C1Oc1ccc(C(=O)O)cc1 (stereo not drawn)", 37000],
  ["CCC1(C)C(=O)N(C(=O)NCc2cc(C)c(C(=O)O)c(C)c2)C1Oc1ccc(C(=O)O)cc1 (stereo not drawn)", 5600],
  ["CCC1(CC)C(=O)N(C(=O)NCc2ccccc2)C1Oc1ccc(CC(N)C(=O)O)cc1 (stereo not drawn) [Table II: C2 H5; C2 H5; drawing 36; CH2 Ph]", 2540],
  ["CCC1(CC)C(=O)N(C(=O)NCc2ccc(N(C)C)cc2)C1Oc1ccc(C(=O)O)cc1 (stereo not drawn)", 9980],
  ["C=CCC1(CC)C(=O)N(C(=O)NCc2ccccc2)C1Oc1ccc(C(=O)O)cc1 (stereo not drawn)", 1970],
  ["CCC1(CC)C(=O)N(C(=O)NCc2ccc(OC)cc2)C1Oc1ccc(C(=O)O)cc1 (stereo not drawn)", 5160]
]}
